B1: scFv; the commonest letter at each place (parent)
chain 1: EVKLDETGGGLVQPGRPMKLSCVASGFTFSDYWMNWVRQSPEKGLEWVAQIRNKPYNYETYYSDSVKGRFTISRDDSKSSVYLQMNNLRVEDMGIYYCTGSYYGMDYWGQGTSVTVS
chain 2: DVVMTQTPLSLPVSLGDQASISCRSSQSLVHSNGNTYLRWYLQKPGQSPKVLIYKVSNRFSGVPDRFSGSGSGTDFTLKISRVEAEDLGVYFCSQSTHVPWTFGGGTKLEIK

- Variants of: B1
- Assay Summary: Kd (Tite-Seq)
- Conditions Used: with fluorescein; format: scFv 4-4-20, heavy + light
pKd: −log10 of the molar value.
pKd for assorted variants

>>> reported_result("chain 1 T28I N35R")
"≤ 5.00"

INPUT: // pKd lookup, key: chain 1 D106S
OUTPUT: 8.55

INPUT: // pKd lookup, key: chain 1 F29H N35V
OUTPUT: 8.60

INPUT: // pKd lookup, key: chain 1 G100T M105T
OUTPUT: ≤ 5.00
